experiment: logP by HPLC on reversed-phase column (EEC Directive 79/831 Annex V.A8); details: HPLC, reversed-phase column (C 18), 40° C., 0.1% aqueous formic acid and acetonitrile, linear gradient 10% to 90% acetonitrile
A collection of compounds and their measured logP
Reply: number alone, nothing else.

- Compound: "Cn1nc(C(F)F)c(C(=O)N(Cc2ccc(Cl)cc2Cl)C2CC2)c1F"
  Measured: 3.69
- Compound: "Cn1nc(C(F)F)c(C(=O)N(Cc2ccccc2I)C2CC2)c1F"
  Measured: 3.37
- Compound: "Cn1nc(C(F)F)c(C(=O)N(Cc2c([Si](C)(C)C)ccc(F)c2F)C2CC2)c1F"
  Measured: 4.36
- Compound: "CC(C)c1ccccc1CN(C(=O)c1c(C(F)F)nn(C)c1Cl)C1CC1"
  Measured: 3.81
- Compound: "CCc1ccccc1C(C)N(C(=O)c1c(C(F)F)nn(C)c1F)C1CC1 (stereo not drawn)"
  Measured: 3.69
- Compound: "Cn1nc(C(F)F)c(C(=O)N(Cc2cc(Cl)cc(Cl)c2Cl)C2CC2)c1F"
  Measured: 4.11
- Compound: "CC(C)Cc1cc(Cl)ccc1CN(C(=O)c1c(C(F)F)nn(C)c1F)C1CC1"
  Measured: 4.59
- Compound: "CC(c1cccc(C(F)(F)c2ccccc2)c1)N(C(=O)c1c(C(F)F)nn(C)c1F)C1CC1 (stereo not drawn)"
  Measured: 4.15
- Compound: "Cn1nc(C(F)F)c(C(=O)N(Cc2c(Cl)cccc2C(F)(F)F)C2CC2)c1F"
  Measured: 3.46
- Compound: "CC[Si](C)(C)c1ccccc1CN(C(=O)c1c(C(F)F)nn(C)c1F)C1CC1"
  Measured: 4.75

Quick check: logP of `Cn1nc(C(F)F)c(C(=O)N(Cc2ccccc2C2CCCC2)C2CC2)c1F` ? 4.2

Which logP reading was recorded for the compound `CC(C)c1ccc(Cl)cc1CN(C(=O)c1c(C(F)F)nn(C)c1F)C1CC1` ? 4.09

logP for CC(c1ccc(Oc2ccccc2)cc1)N(C(=O)c1c(C(F)F)nn(C)c1F)C1CC1 (stereo not drawn) ? 4.14

Which logP reading was recorded for the compound `CCCCCc1cccc(Cl)c1CN(C(=O)c1c(C(F)F)nn(C)c1F)C1CC1` ? 5

Any idea what its logP is? The compound is `Cn1nc(C(F)F)c(C(=O)N(Cc2c(Cl)cccc2I)C2CC2)c1F` 3.58

Param item = CC(c1ncc(Cl)cc1Cl)N(C(=O)c1c(C(F)F)nn(C)c1Cl)C1CC1 (stereo not drawn) ; retrieve measured logP. 3.69

Item CC(c1ccccc1OC(F)(F)F)N(C(=O)c1c(C(F)F)nn(C)c1F)C1CC1 (stereo not drawn) has what recorded logP? 3.6

Reported logP for CC(c1cccc2c1OC(F)(F)O2)N(C(=O)c1c(C(F)F)nn(C)c1F)C1CC1 (racemic) : what is it? 3.58

Need logP of CC(c1ccccc1)N(C(=O)c1c(C(F)F)nn(C)c1F)C1CC1 (stereo not drawn) , thanks. 3.06

State the recorded logP for this entry: `CC(C)c1ccccc1CN(C(=O)c1c(C(F)F)nn(C)c1F)C1CC1` 3.35

logP for `Cc1cc(Br)c(CN(C(=O)c2c(C(F)F)nn(C)c2F)C2CC2)cc1F` ? 3.73

Query (compound): CC(C)c1ccccc1C(C)N(C(=O)c1c(C(F)F)nn(C)c1F)C1CC1 (stereo not drawn) ; field requested: logP 3.99

Can you look up the measured logP of CCC(c1ccc(Cl)cc1Cl)N(C(=O)c1c(C(F)F)nn(C)c1F)C1CC1 (stereo not drawn) for me? 4.2

What value of logP has been recorded for this entry: `Cn1nc(C(F)F)c(C(=O)N(Cc2ccccc2C2CC2)C2CC2)c1F` 3.44
